Value source: patent US20240000786A1

Target: T1, recombinant Nitric oxide synthase interacting protein (NOSIP) (Homo sapiens (Human), UniProt Q9Y314 1-301)
T1 construct: It was synthesized by GenScript, cloned in pET22b, expressed in E. coli BL21 (DE3) and purified on Ni-NTA and by gel filtration; A His tag is implied but never described; also called rNOSIP; recombinant NOSIP
T1 sequence: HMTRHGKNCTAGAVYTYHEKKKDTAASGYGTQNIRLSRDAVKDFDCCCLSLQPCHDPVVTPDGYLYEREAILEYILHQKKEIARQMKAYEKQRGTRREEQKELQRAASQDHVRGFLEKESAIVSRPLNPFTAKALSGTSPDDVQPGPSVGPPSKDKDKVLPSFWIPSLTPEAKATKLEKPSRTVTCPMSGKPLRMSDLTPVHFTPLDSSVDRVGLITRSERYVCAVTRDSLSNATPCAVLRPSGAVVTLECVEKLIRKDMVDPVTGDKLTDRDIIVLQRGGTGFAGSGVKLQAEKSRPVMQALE
Test: ITC (MicroCal PEAQ), peptide in cell, rNOSIP in syringe, 25 C
Metric: pKd
Please report pKd as the negative decimal logarithm of the molar concentration, giving only the number.

Query: Please report the recorded pKd for NQYYGSFKEAKIEEHLAR (18-residue iNOS-derived peptide, synthesized commercially by China peptides; also called PP2; PP-2) [iNOS Peptide-2 (18 mer iNOS peptide)] .
Response: 6.26
